Readings of MIC K. pneumoniae ATCC BAA-2146 (NDM-1) for the listed molecules
Tested on: Klebsiella pneumoniae ATCC BAA-2146 (NDM-1)
Experiment: Antibacterial activity, MIC by dish double dilution method
Assay type: cell-based
Settings: ATCC BAA-2146
Where a SMILES comes first, the peptide text is derived from it. Bridges are numbered along the chain shown (N, C = ends). [ ]: non-standard residue; d: D form. The star is where a group is joined. dPhe(4-Me) = Cc1ccc(C[C@@H](N)C(=O)O)cc1; X2 = CC[C@H](C)CCCCC(=O)*; dDab = NCC[C@@H](N)C(=O)O; Octanoyl = CCCCCCCC(=O)*; Dab = NCC[C@H](N)C(=O)O
Use µg/mL as the unit, but write only the number.

Inquiry: Form field: reported MIC K. pneumoniae ATCC BAA-2146 (NDM-1) of CC[C@H](C)CCCCC(=O)N[C@@H](CCN)C(=O)N[C@H](C(=O)N[C@H](CCN)C(=O)N[C@H]1CCNC(=O)[C@H]([C@@H](C)O)NC(=O)[C@H](CCN)NC(=O)[C@H](CCN)NC(=O)[C@H]([C@@H](C)O)NC(=O)[C@@H](CC(C)C)NC(=O)[C@H](CCN)NC1=O)[C@@H](C)O [Compound 30] (X2-[Dab]T[dDab][Dab][Dab][dL]T[Dab][Dab]T; lactam 4-C)
Reply text: 1

Inquiry: For CCCCCCCC(=O)N[C@@H](CCN)C(=O)N[C@H](C(=O)N[C@@H](CO)C(=O)N[C@H]1CCNC(=O)[C@H]([C@@H](C)O)NC(=O)[C@H](CCN)NC(=O)[C@H](CCN)NC(=O)[C@H](CC(C)C)NC(=O)[C@@H](CC(C)C)NC(=O)[C@H](CCN)NC1=O)[C@@H](C)O [Compound 98] (Octanoyl-[Dab]TS[Dab][Dab][dL]L[Dab][Dab]T; lactam 4-C) , what is its reported MIC K. pneumoniae ATCC BAA-2146 (NDM-1)?
Reply text: 1

***
Inquiry: What measured MIC K. pneumoniae ATCC BAA-2146 (NDM-1) goes with CC[C@H](C)CCCCC(=O)N[C@@H](CCN)C(=O)N[C@H](C(=O)N[C@@H](CCN)C(=O)N[C@H]1CCNC(=O)[C@H]([C@@H](C)O)NC(=O)[C@H](CCN)NC(=O)[C@H](CCN)NC(=O)[C@H](CC(C)C)NC(=O)[C@@H](Cc2ccc(C)cc2)NC(=O)[C@H](CCN)NC1=O)[C@@H](C)O [Compound 26] (X2-[Dab]T[Dab][Dab][Dab][dPhe(4-Me)]L[Dab][Dab]T; lactam 4-C) ?
Reply text: 2

---

// reported IC50 at 72 h for each item listed
Test: Nephrotoxicity test, renal cytotoxicity by MTT method
Format: cell-based
Details: African green monkey
Where a SMILES comes first, the peptide text is derived from it. Bridges are numbered along the chain shown (N, C = ends). [ ]: non-standard residue; d: D form. The star is where a group is joined. dPhe(4-NH2) = Nc1ccc(C[C@@H](N)C(=O)O)cc1; Octanoyl(7-Me) = CC(C)CCCCCC(=O)*; X2 = CC[C@H](C)CCCCC(=O)*; Dab = NCC[C@H](N)C(=O)O
Give the quantity in µg/mL, number only.

Sample answers from the record:
Inquiry: Requested field: IC50 at 72 h. Item: CC(C)CCCCCC(=O)N[C@@H](CCN)C(=O)N[C@H](C(=O)N[C@@H](CCN)C(=O)N[C@H]1CCNC(=O)[C@H]([C@@H](C)O)NC(=O)[C@H](CCN)NC(=O)[C@H](CCN)NC(=O)[C@H](CC(C)C)NC(=O)[C@@H](CC(C)C)NC(=O)[C@H](CCN)NC1=O)[C@@H](C)O [Compound 86] ({Octanoyl(7-Me)}-[Dab]T[Dab][Dab][Dab][dL]L[Dab][Dab]T; lactam 4-C)
Reply text: 87

Inquiry: Looking for the measured IC50 at 72 h of CC[C@H](C)CCCCC(=O)N[C@@H](CCN)C(=O)N[C@H](C(=O)N[C@@H](CCN)C(=O)N[C@H]1CCNC(=O)[C@H]([C@@H](C)O)NC(=O)[C@H](CCN)NC(=O)[C@H](CCN)NC(=O)[C@H]([C@@H](C)CC)NC(=O)[C@@H](CC(C)C)NC(=O)[C@H](CCN)NC1=O)[C@@H](C)O [Compound 71] (X2-[Dab]T[Dab][Dab][Dab][dL]I[Dab][Dab]T; lactam 4-C) , can you help?
Reply text: 176

Turning now to a further record.
Inquiry: Which IC50 at 72 h is reported for this compound? CC[C@H](C)CCCCC(=O)N[C@@H](CCN)C(=O)N[C@H](C(=O)N[C@@H](CCN)C(=O)N[C@H]1CCNC(=O)[C@H]([C@@H](C)O)NC(=O)[C@H](CCN)NC(=O)[C@H](CCN)NC(=O)[C@H](CC(C)C)NC(=O)[C@@H](Cc2ccc(N)cc2)NC(=O)[C@H](CCN)NC1=O)[C@@H](C)O [Compound 11] (X2-[Dab]T[Dab][Dab][Dab][dPhe(4-NH2)]L[Dab][Dab]T; lactam 4-C)
Reply text: 166
